Origin of measurements: PubChem BioAssay (EPA / NIEHS)

Test description: ATG_BRE_CIS: Attagene CIS-FACTORIAL HepG2 Assay for human Bone Morphogenetic Protein (BMP) Response Element (BRE) (AID 2282933)
Condition summary: HepG2 BMP response element reporter, Attagene transcription factor profiling; actives raise or lower the signal
Activity calls are given as the source filed them. The calls were made as follows: active = hit-call score of the fitted dose curve at least 0.9, where 1 is the maximum; inactive = score below 0.9.
Just give me one of these, please: yes (1) = active, no (0) = inactive

Ask | Entry CCCCC(CC)COC(=O)c1ccccc1O (centres undefined) : call = ?
Reply | no (0)

Ask | Entry `O=C(C=Cc1ccccc1)OCc1ccccc1` : call = ?
Reply | no (0)

Ask | Entry `O=S(=O)(Oc1ccc(Cl)cc1Cl)c1ccccc1` : call = ?
Reply | yes (1)

Ask | Entry C=CC(C)(CCC=C(C)C)OC(=O)C(C)C (centres undefined) : call = ?
Reply | no (0)

Ask | Entry `CC=CC(F)(F)C(F)(F)C(F)(F)F` : call = ?
Reply | no (0)

Ask | Entry `COC(=O)/C=C/C(C)=C\C=C\C(C)=C\C=C\C=C(C)\C=C\C=C(C)\C=C\C(=O)O` : call = ?
Reply | no (0)

Ask | Entry COC(=O)C1=C(C)NC(C)=C(C(=O)OCC(C)C)C1c1ccccc1[N+](=O)[O-] (centres undefined) : call = ?
Reply | no (0)

Ask | Entry `CC1(C)[C@H]2CC[C@]1(C)C(=O)C2` : call = ?
Reply | no (0)

Ask | Entry `CCc1c(C(=O)O)c(=O)cnn1-c1ccc(Cl)cc1` : call = ?
Reply | no (0)

Ask | Entry `C=CC=CC=CCCCCC` : call = ?
Reply | no (0)

Ask | Entry `Cc1ccc(N/N=c2\c(=O)cc/c(=N/Nc3ccc(S(=O)(=O)O)cc3)c2=O)c(C)c1` : call = ?
Reply | no (0)

Ask | Entry `O=CN1CCCCC1` : call = ?
Reply | no (0)

Ask | Entry `COc1ccc(-c2coc3cc(O)ccc3c2=O)cc1` : call = ?
Reply | no (0)

Ask | Entry C=C1C2CCC(C2)C1(C)C (centres undefined) : call = ?
Reply | no (0)

Ask | Entry `O=C(c1ccccc1)C1CCC1` : call = ?
Reply | no (0)

Ask | Entry `O=C1CCCCCCCCCCC(=O)OCCO1` : call = ?
Reply | no (0)

Ask | Entry `CC(C)c1ccc2c(c1)CC[C@H]1[C@](C)(CN)CCC[C@]21C` : call = ?
Reply | yes (1)

Ask | Entry `NC(CO)(CO)CO` : call = ?
Reply | no (0)

Ask | Entry `Cc1c(C)c([N+](=O)[O-])c(C(C)(C)C)c([N+](=O)[O-])c1C` : call = ?
Reply | no (0)

Ask | Entry CC1=NC(C)OC1C (centres undefined) : call = ?
Reply | no (0)

Ask | Entry `O=C(O)CCCCCCCCCC(=O)O` : call = ?
Reply | no (0)

Ask | Entry `CC(C)c1ccc2c(C(C)C)cc(C(C)C)c(S(=O)(=O)O)c2c1` : call = ?
Reply | no (0)

Ask | Entry O=S(=O)(O)CC(O)CCl (centres undefined) : call = ?
Reply | no (0)

Ask | Entry `Nc1ccc(Oc2ccc(N)c(N)c2)cc1` : call = ?
Reply | no (0)

Ask | Entry `O=C1CCC(=O)N1Cl` : call = ?
Reply | no (0)

Ask | Entry `C=CCCCCCCCCC(=O)OCCCC` : call = ?
Reply | no (0)

Ask | Entry `CC(=O)Nc1ccc2c(c1)Cc1cc(NC(C)=O)ccc1-2` : call = ?
Reply | no (0)

Ask | Entry `OCCCS` : call = ?
Reply | no (0)

Ask | Entry COCC(C)N (centres undefined) : call = ?
Reply | no (0)
